B1: HDV Ribozyme (parent)
chain: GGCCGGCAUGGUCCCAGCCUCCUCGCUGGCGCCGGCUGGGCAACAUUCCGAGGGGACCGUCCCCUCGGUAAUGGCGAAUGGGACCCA

Variants of: B1
Assay: self-cleavage, relative activity (ratio to wild type); higher = more cleavage; co-transcriptional
Measured self-cleavage values are reported for all entries that follow.

- variant.code: "G6A U46A"
  self-cleavage: 0.208
- variant.code: "C13G G74C"
  self-cleavage: 0.128
- variant.code: "G17C C58A"
  self-cleavage: 0.388
- variant.code: "G11C C36G"
  self-cleavage: 0.148
- variant.code: "G1C C57A"
  self-cleavage: 0.284
- variant.code: "G35U G67A"
  self-cleavage: 0.506
- variant.code: "C21U G73A"
  self-cleavage: 0.0955
- variant.code: "A16C C63G"
  self-cleavage: 0.633
- variant.code: "C19U A43U"
  self-cleavage: 0.104
- variant.code: "G2A C19U"
  self-cleavage: 0
- variant.code: "U65G C75G"
  self-cleavage: 0.323
